Assignment: determine reported binding signal for the given binders.
Experimental System: d-enCas12a-Ultra (Acidaminococcus sp., UniProt U2UMQ6 1-1307, E174R;S542R;K548R;M537R;F870L;D908A;E993A;D1235A)
Protocol Summary: Spec-seq (native PAGE EMSA with sequencing of bound and unbound); 25 mM Tris-HCl pH 7.4, 150 mM KCl, 5 mM MgCl2, 10% glycerol, 1 mM DTT, 40 ng/uL salmon sperm DNA; 400 nM Cas12a, 480 nM crRNA, 50 nM library, 37 C 1 h; native PAGE at room temperature; high values mean tight binding;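 also: relative affinity from the bound to unbound sequence frequency ratio in Spec-seq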
Experimental Parameters: protein: recombinant
Don't forget the unit after the number, please.

Binder	Result
ACGG (dsDNA) DNA 1: GCTATCTAGTGCTCAGTACGCACTGACGGAGGAAACTTCTGGCAGGACCAGGTCATGAGATCGGAAGAGCACACGTCTGAACTCCAGTCA DNA 2: TGACTGGAGTTCAGACGTGTGCTCTTCCGATCTCATGACCTGGTCCTGCCAGAAGTTTCCTCCGTCAGTGCGTACTGAGCACTAGATAGC RNA: AAUUUCUACUCUUGUAGAUAGGAAACUUCUGGCAGGACC	-3.43 lnKA
GTGG (dsDNA) DNA 1: GCTATCTAGTGCTCAGTACGCACTGGTGGAGGAAACTTCTGGCAGGACCAGGTCATGAGATCGGAAGAGCACACGTCTGAACTCCAGTCA DNA 2: TGACTGGAGTTCAGACGTGTGCTCTTCCGATCTCATGACCTGGTCCTGCCAGAAGTTTCCTCCACCAGTGCGTACTGAGCACTAGATAGC RNA: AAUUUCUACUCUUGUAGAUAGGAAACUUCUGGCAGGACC	-3.47 lnKA
CGGC (dsDNA) DNA 1: GCTATCTAGTGCTCAGTACGCACTGCGGCAGGAAACTTCTGGCAGGACCAGGTCATGAGATCGGAAGAGCACACGTCTGAACTCCAGTCA DNA 2: TGACTGGAGTTCAGACGTGTGCTCTTCCGATCTCATGACCTGGTCCTGCCAGAAGTTTCCTGCCGCAGTGCGTACTGAGCACTAGATAGC RNA: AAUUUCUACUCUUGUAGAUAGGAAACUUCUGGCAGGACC	-3.15 lnKA

For every item below, please supply its binding signal.
1. AGTC (dsDNA) DNA 1: GCTATCTAGTGCTCAGTACGCACTGAGTCAGGAAACTTCTGGCAGGACCAGGTCATGAGATCGGAAGAGCACACGTCTGAACTCCAGTCA DNA 2: TGACTGGAGTTCAGACGTGTGCTCTTCCGATCTCATGACCTGGTCCTGCCAGAAGTTTCCTGACTCAGTGCGTACTGAGCACTAGATAGC RNA: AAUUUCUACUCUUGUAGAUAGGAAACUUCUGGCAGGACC
2. AAGC (dsDNA) DNA 1: GCTATCTAGTGCTCAGTACGCACTGAAGCAGGAAACTTCTGGCAGGACCAGGTCATGAGATCGGAAGAGCACACGTCTGAACTCCAGTCA DNA 2: TGACTGGAGTTCAGACGTGTGCTCTTCCGATCTCATGACCTGGTCCTGCCAGAAGTTTCCTGCTTCAGTGCGTACTGAGCACTAGATAGC RNA: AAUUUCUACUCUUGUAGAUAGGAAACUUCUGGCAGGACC

## Output
1: -0.544 lnKA; 2: -3.34 lnKA
